# Tested on: L1210 leukemia ip in BDF1 mice, survival T/C
# test-name: NCI In Vivo Anticancer Drug Screen. Data for tumor model L1210 Leukemia (intraperitoneal) in B6D2F1 (BDF1) mice
# measurement-conditions: endpoint: mean survival time; dose: 50.0 mg/kg/injection; schedule: Q04DX002 (ip); vehicle: Klucel (hydroxypropylcellulose) (HPC); higher = longer survival
Toxic doses and inconclusive results are not listed.
Would you kindly list T/C for each of these compounds?

IN: Query (compound): COC(=O)N1C(C)=CC=CC=C1C ; field requested: T/C
OUT: 98 % of control

IN: Returns the measured T/C for the input compound. Input: Oc1ccc(-c2cc3c(O)ccc(O)c3[nH]2)cc1O
OUT: 93 % of control

IN: What T/C value was documented for this compound, CCCCCCCCCCCc1nc(N)nc(NCCc2ccccc2)n1 ?
OUT: 87 % of control

IN: Which T/C value belongs to Clc1ccccc1C(c1cccc2ccccc12)n1ccnc1 (stereo unspecified) ?
OUT: 100 % of control

IN: # input compound: Cc1ccc(C/C(Cc2ccccc2)=N/O)cc1 ; wanted: its T/C
OUT: 111 % of control

IN: I am curious: what T/C value has been reported for ClCC1=NCCCN1 ?
OUT: 104 % of control

====

# System: L1210 leukemia ip in BDF1 mice, survival T/C
# test-name: NCI In Vivo Anticancer Drug Screen. Data for tumor model L1210 Leukemia (intraperitoneal) in B6D2F1 (BDF1) mice
# measurement-conditions: endpoint: mean survival time; dose: 10.0 mg/kg/injection; schedule: Q01DX001 (ip); vehicle: saline; higher = longer survival
Toxic doses and inconclusive results are not listed.
property: T/C

IN: What value of T/C has been recorded for this entry: Nc1ncccc1O
OUT: 105 % of control

IN: Reported T/C, compound c1cc[c]([Sn]([O][Sn]([c]2ccccc2)([c]2ccccc2)[c]2ccccc2)([c]2ccccc2)[c]2ccccc2)cc1 : ____
OUT: 100 % of control

IN: Return reported T/C; argument: CCO/C(=C\[P+](c1ccccc1)(c1ccccc1)c1ccccc1)c1ccccc1
OUT: 93 % of control

IN: // lookup T/C for FCCNCCF
OUT: 112 % of control

IN: GET /values?readout=T/C&item= CCN(CCO)c1ccc(N=O)cc1
OUT: 101 % of control

IN: Entry under review: CC(=O)Nc1ncccc1C . Reported T/C?
OUT: 96 % of control

IN: Record request: T/C value, item O=[As](O)(O[As](=O)(O)c1ccccc1)c1ccccc1
OUT: 103 % of control

IN: // T/C lookup, key: OC1COC(n2cnc3c(=S)nc[nH]c32)CC1O (stereo not drawn)
OUT: 103 % of control

====

# Test system: L1210 leukemia ip in BDF1 mice, survival T/C
# test-name: NCI In Vivo Anticancer Drug Screen. Data for tumor model L1210 Leukemia (intraperitoneal) in B6D2F1 (BDF1) mice
# measurement-conditions: endpoint: mean survival time; dose: 25.0 mg/kg/injection; schedule: Q01DX009 (ip); vehicle: saline; higher = longer survival
Toxic doses and inconclusive results are not listed.
Could you please report measured T/C for the items listed next?

IN: Any idea what T/C was measured for [Br][V]([Br])[Br] ?
OUT: 93 % of control

IN: Looking for the measured T/C of Nc1ccc(C(=O)CCCN2CCCCC2)cc1 , can you help?
OUT: 97 % of control

IN: Entry C=C1C(=O)OC2CC(C)C3CC(=O)C(C)=C3C(O)C12 (centres undefined) has what T/C?
OUT: 94 % of control

IN: Given CCN(CC)CC(=O)NCC(CCN1CCCCC1)(c1cccc2ccccc12)C(C)C (centres undefined) , state its recorded T/C.
OUT: 101 % of control

IN: # query: T/C of entry NC(CSC(c1ccccc1)(c1ccccc1)c1ccc(O)cc1)C(=O)O (centres undefined)
OUT: 116 % of control

IN: // lookup T/C for CN1CCC=C(C(=O)N2c3ccccc3Sc3ccccc32)C1
OUT: 88 % of control

IN: Data request, read-out T/C, for C/C(=N\[N+](C)(C)C)c1ccc(Br)cc1
OUT: 92 % of control

IN: Requested read-out: T/C. Entry: CCCCCCCCC(=O)N(C)CCO
OUT: 104 % of control

IN: For O=[N+]([O-])c1cc([N+](=O)[O-])cc(S(=O)(=O)O)c1 , what is its reported T/C?
OUT: 106 % of control
